System: S. typhimurium/E. coli reverse mutation, colony counts
Test: Bacterial reverse mutation test (aka Ames test) summary data;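 further: His-minus Salmonella and trp-minus E. coli WP2 uvrA pKM101 with or without liver S9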
Description: The Ames test uses bacteria cultures to determine whether a substance causes mutations. Because there is a significant overlap between substances that are mutagens and those that are carcinogens, a quick and inexpensive mutagenicity test is useful as an initial screening for possible carcinogens. The Ames test relies on specific strains of S. typhimurium, namely: TA97, TA98, TA100, TA102, TA104, TA1535, TA1537, and TA1538. […]
Results filed as inconclusive are left out. Activity calls are given as the source filed them. How the calls were made is not given here.
Outcomes: active, inactive

INSERT INTO results (compound, group) VALUES
  ('CN(C)CCC(c1ccccc1)c1ccccn1 (centres undefined)', 'inactive'),
  ('CC(Cl)(Cl)Cl', 'inactive'),
  ('O=C(O)c1ccccc1C(=O)O', 'inactive'),
  ('CCCCCCCCOc1ccc(C(=O)O)cc1', 'inactive'),
  ('Nc1nc2ccc([N+](=O)[O-])cc2s1', 'active'),
  ('Cc1ccc(N)cc1Cl', 'active'),
  ('SCCc1cnccn1', 'inactive'),
  ('Clc1ccc(N=Nc2ccc(Cl)c(Cl)c2)cc1Cl', 'active'),
  ('Cl[C@@H]1C2(Cl)C3C4[C@@H]5O[C@@H]5[C@H]5C3[C@@](Cl)(C2(Cl)Cl)[C@]1(Cl)[C@@H]45 (some centres undefined)', 'active'),
  ('c1ccc2scnc2c1', 'inactive'),
  ('Nc1cccc(Cl)c1', 'inactive'),
  ('CCC(C)C', 'inactive'),
  ('C[Si](C)(C)Cl', 'active'),
  ('CCCCC(CC)CNCC(CC)CCCC (centres undefined)', 'inactive'),
  ('COC(=O)c1ccc(C(=O)OC)cc1', 'inactive'),
  ('CCOC(=O)c1ccccc1N', 'inactive'),
  ('Nc1ccc(S(=O)(=O)Nc2ccccn2)cc1', 'inactive'),
  ('CCOc1ccc(N)cc1', 'active'),
  ('Cc1cc(=O)[nH]c(=S)[nH]1', 'inactive'),
  ('C=C(C)C(=O)NCCCN(C)C', 'inactive'),
  ('CCCC(C)(COC(N)=O)COC(=O)NC(C)C (centres undefined)', 'inactive'),
  ('CN(CCO)CCO', 'inactive'),
  ('COC(C)(C)C', 'inactive'),
  ('CC(=O)C(C)O (centres undefined)', 'inactive'),
  ('[CH3][Sn]([Cl])([Cl])[Cl]', 'inactive'),
  ('CC12CCC(CC1)C(C)(C)O2', 'inactive'),
  ('ClC(Cl)c1ccccc1', 'active'),
  ('CCC=O', 'inactive'),
  ('Nc1ccc(S(=O)(=O)Nc2nccs2)cc1', 'inactive'),
  ('ClCCCl', 'active'),
  ('COc1ccc(N)c(C)c1', 'active'),
  ('C=Cc1ccccc1', 'inactive'),
  ('O=P1(N(CCCl)CCCl)NCCCO1 (centres undefined)', 'active'),
  ('COC(=O)CCC(=O)OC', 'inactive');
